The measured values listed here are drawn from patent US6194411A.

pA2 rat mesenteric artery values, listed per item
- Tested on: α1-adrenoceptor (mesenteric artery)
- Test Protocol: isolated organ: postsynaptic α1-adrenoceptor antagonism on mesenteric artery
- Set-up: species or system rat
- Experimental Conditions: agonist phenylephrine; 37° C; 30-minute incubation with antagonist
Answer as a number with no unit attached.

Below, 4 compounds whose answers are already recorded.
Compound	Tested Target	Data Value
O=c1cccnn1CCCNC[C@@H]1COc2ccccc2O1 [(1)]	α1-adrenoceptor (mesenteric artery)	6.56
COc1cc2nc(N(C)CCCNC(=O)C3CCCO3)nc(N)c2cc1OC (centres unmarked) [Alfuzosin]	α1-adrenoceptor (mesenteric artery)	8.60
O=c1cccnn1CCCNCC1COc2ccccc2O1 (racemic) [(3), reference compound]	α1-adrenoceptor (mesenteric artery)	7.16
O=c1cccnn1CCCNC[C@H]1COc2ccccc2O1 [(2)]	α1-adrenoceptor (mesenteric artery)	7.68

Now let's try a different one.
Q) Data request, read-out pA2 rat mesenteric artery, for COc1cc2nc(N3CCN(C(=O)C4CCCO4)CC3)nc(N)c2cc1OC (centres unmarked) [Terazosin]
A) 8.45
